Form field: hERG current change (%, negative = inhibition) at 10uM (one value per entry).
EXPERIMENTAL_TARGET: human ether-à-go-go-related gene (hERG) potassium channel (human, UniProt Q12809);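 note: peak tail current of the secondary pulse compared with the same well before compound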
Sequence (Q12809 whole entry, looked up): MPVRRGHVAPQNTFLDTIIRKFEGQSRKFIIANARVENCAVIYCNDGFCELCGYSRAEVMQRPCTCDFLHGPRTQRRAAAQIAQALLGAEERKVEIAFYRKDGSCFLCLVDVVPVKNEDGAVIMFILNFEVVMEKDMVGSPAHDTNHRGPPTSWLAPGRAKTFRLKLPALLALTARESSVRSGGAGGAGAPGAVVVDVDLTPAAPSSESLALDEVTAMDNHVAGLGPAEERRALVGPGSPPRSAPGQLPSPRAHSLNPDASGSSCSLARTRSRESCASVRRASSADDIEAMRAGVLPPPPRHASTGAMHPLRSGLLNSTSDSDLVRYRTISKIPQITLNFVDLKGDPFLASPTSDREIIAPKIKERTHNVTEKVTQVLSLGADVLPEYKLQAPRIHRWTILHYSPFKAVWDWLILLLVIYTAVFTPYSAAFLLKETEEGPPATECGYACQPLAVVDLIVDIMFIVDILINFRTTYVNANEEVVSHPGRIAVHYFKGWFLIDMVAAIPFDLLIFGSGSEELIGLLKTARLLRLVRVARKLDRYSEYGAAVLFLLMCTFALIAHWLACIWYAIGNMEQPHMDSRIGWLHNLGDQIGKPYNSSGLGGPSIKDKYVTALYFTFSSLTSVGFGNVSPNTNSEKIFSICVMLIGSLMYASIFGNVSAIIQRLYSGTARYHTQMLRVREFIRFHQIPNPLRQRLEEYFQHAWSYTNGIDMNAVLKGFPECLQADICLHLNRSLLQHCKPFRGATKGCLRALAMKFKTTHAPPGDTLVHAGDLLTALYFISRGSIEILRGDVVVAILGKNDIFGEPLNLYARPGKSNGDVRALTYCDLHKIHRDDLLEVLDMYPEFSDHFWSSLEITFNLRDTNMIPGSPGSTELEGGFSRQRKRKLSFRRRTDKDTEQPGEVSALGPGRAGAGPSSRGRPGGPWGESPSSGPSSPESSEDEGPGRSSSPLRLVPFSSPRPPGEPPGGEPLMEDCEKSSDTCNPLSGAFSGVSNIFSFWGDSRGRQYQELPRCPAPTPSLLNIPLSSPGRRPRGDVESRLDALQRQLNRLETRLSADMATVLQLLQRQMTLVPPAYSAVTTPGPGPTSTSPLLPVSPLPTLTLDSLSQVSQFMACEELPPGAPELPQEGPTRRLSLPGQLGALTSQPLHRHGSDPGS
PROCEDURE_TEXT: primary screen, population patch clamp on CHO cells stably expressing hERG; higher = less effect of the substance
The campaign covered roughly 310,000 compounds. About 14,000 (4.5%) showed an effect of 50% or more. The effect is printed as a negative number. This excerpt belongs to a sample that is enriched for strong results.
# unit: % | format: bare number

| COMPOUND | OBSERVED_RESULT |
| --- | --- |
| O=C(CSc1nnc(-c2ccccc2Br)o1)N1CCN(C(=O)c2ccco2)CC1 | -40.9 |
| Cc1cccn2c(=O)c3cc(C(=O)NC4CCCCC4C)n(C)c3nc12 (stereo not drawn) | 13.7 |
| CCOc1ccccc1Cn1c(=O)sc2ccccc21 | 7.43 |
| Cl.c1ccc2c(c1)N1CCCN=C1N2CCN1CCCCC1 | -62.8 |
| O=C(c1ccc(-n2ccnc2)cc1)N1CCCC(CO)(Cc2cccc(Cl)c2)C1 (stereo not drawn) | -60.4 |
| COc1cccc(CC2(CO)CCCN(C(=O)c3cc[n+]([O-])cc3)C2)c1 (stereo not drawn) | 10.4 |
| O=C(CSc1nnc(-c2ccc(Br)cc2)o1)N1CCN(C(=O)c2ccco2)CC1 | -54.6 |
| COc1ccc(-c2noc(=O)n2Cc2ccc(C#N)cc2)cc1 | -70.1 |

Note: attention shifts to another entry.
Ask: Give hERG current change (%, negative = inhibition) at 10uM for the following compound: Cc1ccccc1CC1(CO)CCCN(C(=O)c2cccc(Cl)c2)C1 (stereo not drawn)
Reply: 1.01

###

EXPERIMENTAL_TARGET: human ether-à-go-go-related gene (hERG) potassium channel (human);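 note: peak tail current of the secondary pulse compared with the same well before compound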
PROCEDURE_TEXT: primary screen, population patch clamp on CHO cells stably expressing hERG; higher = less effect of the substance
Among all 310,000 compounds or so, about 14,000 (4.5%) showed an effect of 50% or more. Effects have a minus sign here. The entries come from a sample that favours strong results as a whole.
This listing pairs molecules with measured hERG current change (%, negative = inhibition) at 10uM.
Answer in %, number only, no unit symbol.

Recorded results for 6 molecules are shown here.
| MOLECULE | OBSERVED_RESULT |
| --- | --- |
| Cc1ccc(-c2nnc3ccc(SCC(=O)NCc4ccco4)nn23)cc1 | -6.59 |
| Cc1cc(C)nc(NNS(=O)(=O)c2ccc(F)c(Cl)c2)n1 | 0.38 |
| O=C(NCC(c1cccnc1)N1CCN(c2ccccc2)CC1)c1ccc2c(c1)OCO2 (stereo not shown) | -26.5 |
| Cl.OCCNc1nc(Nc2cccc(O)c2)nc2ccccc12 | -23.8 |
| Cl.Oc1cccc(Nc2nc(NCC3CCCO3)c3ccccc3n2)c1 (stereo not shown) | -61.4 |
| O=c1c2ccccc2sc2ccc(NCCCN3CCOCC3)cc12 | -54.2 |

Ask: Give reported hERG current change (%, negative = inhibition) at 10uM for O=C(NCC(c1cccnc1)N1CCN(c2ccc(F)cc2)CC1)c1ccc2c(c1)OCO2 (stereo not shown) (human ether-à-go-go-related gene (hERG) potassium channel (human))
Reply: -65.3

Ask: State recorded hERG current change (%, negative = inhibition) at 10uM with human ether-à-go-go-related gene (hERG) potassium channel (human), entry CCOC(=O)c1nc(Nc2cc(Cl)ccc2OC)c2ccccc2n1 , no comment.
Reply: 6.83

Ask: Under human ether-à-go-go-related gene (hERG) potassium channel (human), report hERG current change (%, negative = inhibition) at 10uM for CCOc1ccc(Nc2nc(NCC3CCCO3)c3ccccc3n2)cc1.Cl (stereo not shown)
Reply: -72.3

Ask: Output reported hERG current change (%, negative = inhibition) at 10uM of the molecule O=c1c2ccccc2nc2c3ccccc3c(NCc3ccccn3)nn12 on human ether-à-go-go-related gene (hERG) potassium channel (human).
Reply: -13.5

Ask: Provide measured hERG current change (%, negative = inhibition) at 10uM on human ether-à-go-go-related gene (hERG) potassium channel (human) for CCN(CC)Cc1cc(C(=O)O)c(C)o1 please.
Reply: 19.4
